meta.source: a melting point compilation (Tetko et al.; mined from patent text by program, amines drawn as free bases though some values may be those of a salt)

endpoint-label: melting point

For every listed record, write down its melting point.
1. COc1cc2c(cc1Cl)CC(=O)NN=C2c1ccc(N)cc1
2. O=C(O)COc1ccc(SCc2ccc(OCc3ccc(Cl)cc3)cc2)c2c1CCC2
3. O=C(Nc1ccc2nc(CN3CCCC3)ccc2c1)c1ccc(-c2ccccc2)cc1
4. Cc1ccc2c(c1)C(C(=S)Nc1c(C(C)C)cccc1C(C)C)c1ccccc1CO2 (centres undefined)
5. CC(=O)Nc1ccc(S(N)(=O)=O)cc1[N+](=O)[O-]
6. Cc1nc(N)sc1CCC1CCCCC1
7. NS(=O)(=O)c1ccc(NC(=O)CNc2ccccc2)c(Cl)c1

1. 234 to 236 °C
2. 170 to 172 °C
3. 181 to 183 °C
4. 140 °C
5. 182 to 183 °C
6. 98 to 100 °C
7. 185 to 186 °C

For every listed record, write down its melting point.
1. O=C(Cc1ccncc1)NC(Cc1ccc(Cl)c(Cl)c1)C(=O)CCc1cc(C(F)(F)F)cc(C(F)(F)F)c1 (centres undefined)
2. CC(CSC(=O)c1ccco1)C(=O)N1CCCC1C(=O)O (mixture of isomers)
3. CC(=O)OC1CSC(Oc2cccc(-c3cccnc3C)c2)C(OC(C)=O)C1OC(C)=O (centres undefined)
4. COc1cc(C)cc(OC)c1C(=O)CCl

["142 to 144 °C", "132 to 140 °C", "153 °C", "82 to 84 °C"]

For every listed record, write down its melting point.
1. CCC1(C)Cc2ccc(C)cc2C1=O (centres undefined)
2. C[C@@H](n1ncn(-c2ccc(-n3nccn3)cc2)c1=O)[C@](O)(Cn1cncn1)c1ccc(F)cc1F

25.5 to 27 °C
213 to 215 °C

For every listed record, write down its melting point.
1. COCc1cc(C)nc2nc(S(=O)(=O)Nc3c(C)cccc3Cl)nn12
2. CCOC(=O)c1nc(-c2ccccc2)n(-c2ccc(C(F)(F)F)cc2Cl)n1
3. CCOc1ccc(C2=NNC(=O)CC2)cc1OCC
4. CSc1ccc(CCCOCCCCCCNCC(O)c2ccc3c(n2)COC(c2ccccc2)O3)cc1 (centres undefined)

1: 227 °C; 2: 107 to 108 °C; 3: 142 to 143 °C; 4: 70 °C

For every listed record, write down its melting point.
1. COc1ccc2oc(-c3ccccc3)c(C)c2c1
2. CN1C2CCCC1CC(NC(=O)c1cccc3nc(-c4ccccc4)oc13)C2 (centres undefined)
3. COc1ccc(NC(=O)c2ccc(F)c(F)c2)cc1NS(=O)(=O)c1ccc(N)cc1
4. N#Cc1ccc(OCc2cccnc2)cc1F
5. CCOC(=O)C(NC(C)=O)(C(=O)OCC)c1ccc(Cl)cn1
6. Cc1ncc(Cn2c(S)nc3ccccc32)o1
7. CCOC(=O)CCCn1c(Nc2cnc(N(C)C)cc2C)nc2c(Cl)ccc(C(CC)CC)c21

["106 to 107 °C", "208 to 210 °C", "229 to 231 °C", "105 to 110 °C", "89 to 90 °C", "153 °C", "158 to 159 °C"]

For every listed record, write down its melting point.
1. O=[N+]([O-])c1cc(Cl)cc(C(Cl)c2cc(Cl)cc([N+](=O)[O-])c2O)c1O
2. Cc1ccc(COc2cccc(/C=C/c3ccc(CN4CCCCC4)cc3)c2)cc1
3. N#Cc1ccccc1-c1ccc(CN=[N+]=[N-])cc1

180 °C
87 to 88 °C
69 to 70 °C

For every listed record, write down its melting point.
1. CC(C)(C)c1cc(CCc2n[nH]c(=S)o2)cc(C(C)(C)C)c1O
2. O=c1c(-c2ccccc2)c(Cn2cnc3c(Cl)ncnc32)oc2ccccc12

1. 164 to 166 °C
2. 187 to 190 °C

====

endpoint-label: melting point

See these solved cases before continuing.
compound	endpoint-result
Cc1ccc(N)c2c1CCC2=NNC(=N)N	> 250 °C
FC(F)(F)c1cnc(-c2ccc(Cl)c(CBr)c2)c(Cl)c1	71 to 72 °C
NC(=S)NN=C(CCCOC(=O)Nc1cccc2ccccc12)c1ccccc1	189 to 192 °C
CCOC(=O)c1c[nH]c2nc(N3CCN(C)CC3)ncc2c1=O	266 to 268 °C
CCN(CC)C(=O)Cc1c(-c2ccc(Cl)cc2)nc2c(C)cc(C)nn12	162 to 165 °C

For every listed record, write down its melting point.
1. O=C(CCCCl)Nc1nnc(-c2ccccc2)s1
2. CS(=O)(=O)c1ccc(-c2cnn(CC(F)(F)F)c(=O)c2Cc2ccccc2)cc1
3. CC(O)c1cc(-c2cccc(F)c2)ccc1N (stereo not drawn)
4. O=C(O)c1ccc(-c2nnc(-c3ccc(OC(F)(F)C(F)(F)F)cc3)o2)cc1

1. 159 to 162 °C
2. 112 to 114 °C
3. 136 to 137 °C
4. 301 to 307 °C

For every listed record, write down its melting point.
1. CCNc1nc2ccc(CCc3nc4cc(C)ccn4c3Br)cc2o1
2. Cc1cc(SCc2ccc(OCc3ccc(OC(F)(F)F)cc3)cc2)ccc1OCC(=O)O
3. CN(C)c1ccc(-c2nc(S)nnc2-c2ccc(F)cc2)cc1

1. 149 to 153 °C
2. 141 to 142 °C
3. 262 to 264 °C

For every listed record, write down its melting point.
1. Nc1c(CCO)cccc1C(=O)c1ccc(Cl)cc1
2. CCOC(=O)CCc1cn(C)nc1O
3. O=c1ccc(-c2cccc(Br)c2)nn1CN1CCOCC1
4. CNc1cc(N2CCOCC2)nc(N2CCOCC2)n1
5. C#Cc1ccc2c(c1)c(=O)c(C(=O)OCC)cn2CC
6. C[C@@H](N(CCNC(=O)OC(C)(C)C)C(=O)c1ccc(C(F)(F)F)cc1)[C@](O)(Cn1cncn1)c1ccc(F)cc1F (relative stereo)

["111 to 126 °C", "89 to 91 °C", "110 to 111 °C", "127 to 128 °C", "185 to 187 °C", "135 to 143 °C"]

For every listed record, write down its melting point.
1. CCN(CC)CCNC(=O)c1cc(Cl)c(N)cc1OCC(=O)C(C)C
2. COc1cc(CO)ccc1OCc1nc(N2CCCCC2)sc1C
3. COC(=O)/C=C/c1ccc2c(c1)nc(N)c1ncn(CC(C)(C)O)c12

1. 109 to 110 °C
2. 92 to 93 °C
3. > 250 °C

====

Counter-ions that a name gives are not always drawn. Residues, ends and D or L forms follow the SMILES beside them. *: point of attachment. Tfa = O=C(C(F)(F)F)*; NHPh = c1ccc(N*)cc1
endpoint-label: melting point

compound	melting point
CC1(C)CC(NC(=O)c2ccc(Cl)c([N+](=O)[O-])c2)CC(C)(C)N1	166 to 168 °C

For every listed record, write down its melting point.
1. CCCCC1=NC2(CCCC2)C(=O)N1Cc1ccc(-c2ccccc2S(=O)(=O)Nc2onc(C)c2C)c(OCC(C)C)c1
2. O=C(c1ccccc1)n1c(=O)c(C(F)(F)F)cn(C2CC(OCc3ccccc3)C(CO)O2)c1=O (centres undefined)
3. CCOC=NN=C(c1ccc(Cl)cc1)c1ccc(OS(C)(=O)=O)cc1
4. COc1ccc(I)c(CC(=O)N(C)C)c1
5. NC(=O)c1cc(OCCNCC(O)c2ccccn2)ccc1O (centres undefined)
6. CC(C)(C)OC(=O)NC1Cc2ccccc2C(F)C1O (centres undefined)
7. CN(CC(O)c1ccc2[nH]c(=O)[nH]c2c1)C1CCC(c2ccccc2)CC1 (centres undefined)

1. 58 to 61 °C
2. 154 to 155 °C
3. 104 to 107 °C
4. 86 to 89 °C
5. 169 to 170 °C
6. 98 to 99 °C
7. 238 to 239 °C

For every listed record, write down its melting point.
1. Cn1c(C=[N+](C)[O-])cnc1[N+](=O)[O-]
2. CCNC(=O)Nc1nc2cc(-c3cnc(N(C)C)nc3)cc(C(=O)NCC)n2n1
3. CCOC(=O)c1c(S(=O)(=O)Nc2c(F)cccc2F)nn2c(C)cc(C)nc12
4. CC(=O)NCC1CN(c2ccc3c(c2)C(=O)CCCC3)C(=O)O1 (centres undefined)
5. C[C@H](NC(=O)C(F)(F)F)C(=O)N1CCC[C@H]1C(=O)Nc1ccccc1 (Tfa-Ala-Pro-NHPh)
6. CCC1c2cccn2-c2c(cc(F)c(F)c2F)N1S(=O)(=O)c1ccc(O)cc1 (centres undefined)
7. COC(=O)c1ccc(Cn2nc(Cl)c3ccc([N+](=O)[O-])cc32)c(OC)c1
8. CC(=O)Nc1ccc(C)cc1Oc1c(NCc2ccccc2)cc(C(=O)O)cc1S(N)(=O)=O

["208 to 209 °C", "328 to 334 °C", "88 to 110 °C", "120 to 121 °C", "204 to 207 °C", "155 to 156 °C", "131 to 132 °C", "203 °C"]

For every listed record, write down its melting point.
1. COc1ccc([C@@H]2Sc3cc(Oc4ccc(F)cc4)ccc3NC(=O)[C@@H]2O)cc1
2. O=C(O)CCSC1c2cc(OCc3ccc4ccc(Cl)cc4n3)ccc2OCc2c(-c3nnn[nH]3)cccc21 (centres undefined)
3. Cc1cc(C(C)(C)CBr)c(C)nn1
4. CC(C)Cc1cc(NC(=O)c2nccnc2Cl)ccc1C(C(F)(F)F)C(F)(F)F
5. Cc1nnc2n1-c1ccc(C#CCn3nc4ccccn4c3=O)cc1C(c1ccccc1F)=NC2

["198 to 200 °C", "122 to 125 °C", "45 to 46 °C", "128 to 129 °C", "170 to 173 °C"]

For every listed record, write down its melting point.
1. CC(C(=O)O)c1ccc(N2CCC=N2)c(Cl)c1 (centres undefined)
2. COc1ccc2c(c1)C(=O)OC2C(Cl)(Cl)Cl (centres undefined)
3. COC(=O)c1ccc(OCC2CC(=O)N(c3ccc(OCCO)cc3)C2)cc1 (centres undefined)

94 to 102 °C
134 to 136 °C
129 to 131 °C
